measurementLabel: pIC50
FYI, pIC50 means -log10 of a concentration in mol per litre.

Field pIC50 (system: Carboxylic ester hydrolase (Equus caballus)) for entry O=C(/C=C/c1cccc(O)c1)c1ccccc1 [Chalcone, 2] = 4.34

Field pIC50 (system: Carboxylic ester hydrolase (Equus caballus)) for entry COc1ccc(/C=C/C(=O)c2ccccc2)cc1OC [Chalcone, 5] = 4.64

Field pIC50 (system: Carboxylic ester hydrolase (Equus caballus)) for entry O=C(/C=C/c1ccc(O)cc1)c1ccccc1 [Chalcone 2] = 4.40

Field pIC50 (system: Carboxylic ester hydrolase (Equus caballus)) for entry O=C(/C=C/c1ccccc1)c1ccccc1 [Chalcone, 13] = 3.96

Field pIC50 (system: Carboxylic ester hydrolase (Equus caballus)) for entry O=C(/C=C/c1ccccc1O)c1ccccc1 [Chalcone, 1] = 4.80

Field pIC50 (system: Carboxylic ester hydrolase (Equus caballus)) for entry COc1ccc(/C=C/C(=O)c2ccccc2)cc1 [Chalcone, 4] = 4.41

Origin of the recorded values: BindingDB's records for doi:10.1080/14756360400015231
